Examples of compounds with documented IC50 follow.
target: Diacylglycerol lipase-beta (Mus musculus) (UniProt Q91WC9); experiment: in situ ABHD6 versus DAGLb inhibition – cell-based, gel-based competitive ABPP, fluorescence, selectivity assay for DAGLb inhibitor project, dose response (AID 602335); conditions: DAGLb
Sequence (Q91WC9 whole entry, looked up): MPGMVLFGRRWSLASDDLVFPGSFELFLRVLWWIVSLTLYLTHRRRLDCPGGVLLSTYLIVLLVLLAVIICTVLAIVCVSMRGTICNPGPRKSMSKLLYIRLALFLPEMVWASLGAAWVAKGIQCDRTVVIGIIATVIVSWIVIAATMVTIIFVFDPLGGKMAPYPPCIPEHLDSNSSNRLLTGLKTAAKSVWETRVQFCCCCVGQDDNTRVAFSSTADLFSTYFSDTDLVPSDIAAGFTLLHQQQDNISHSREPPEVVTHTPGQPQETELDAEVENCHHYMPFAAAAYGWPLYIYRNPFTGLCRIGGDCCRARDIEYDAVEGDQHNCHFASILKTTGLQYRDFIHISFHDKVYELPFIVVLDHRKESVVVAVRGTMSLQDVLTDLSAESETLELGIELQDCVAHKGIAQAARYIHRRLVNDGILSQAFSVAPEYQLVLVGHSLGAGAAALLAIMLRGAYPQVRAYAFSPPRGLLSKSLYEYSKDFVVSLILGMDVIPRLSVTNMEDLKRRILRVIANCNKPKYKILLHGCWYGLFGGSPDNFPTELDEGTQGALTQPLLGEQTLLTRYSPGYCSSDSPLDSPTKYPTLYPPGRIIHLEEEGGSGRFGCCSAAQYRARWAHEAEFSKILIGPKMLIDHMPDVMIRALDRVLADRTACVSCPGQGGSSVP
Activity calls are given as the source filed them. No rule for the calls is given here.

Use these answered entries as a reference point.
Reported IC50 (Diacylglycerol lipase-beta (Mus musculus) (UniProt Q91WC9)) for entry O=C(N1CCCCC1c1ccccc1)n1cc(-c2ccc(-c3ccccc3)cc2)nn1 (centres undefined) is > 100 nM (inactive)

For the compound COc1ccc(-c2ccc(-c3cn(C(=O)N4CCCCC4c4ccccc4)nn3)cc2)cc1 (centres undefined) , the measured IC50 on Diacylglycerol lipase-beta (Mus musculus) (UniProt Q91WC9) was > 100 nM (inactive)

# value of IC50, Diacylglycerol lipase-beta (Mus musculus) (UniProt Q91WC9), item O=C(N1CCCCC1c1ccccc1)n1cc(-c2ccc(-c3cccc(CO)c3)cc2)nn1 (centres undefined) = > 100 nM (inactive)

New cases:
IC50 for Diacylglycerol lipase-beta (Mus musculus) (UniProt Q91WC9) with input O=C(O)c1cccc(-c2ccc(-c3cn(C(=O)N4CCCCC4Cc4ccccc4)nn3)cc2)c1 (centres undefined) equals > 100 nM (inactive)
